# pEC50 per record follows
tested_on: CepR (Burkholderia multivorans, UniProt Q93PF7)
Sequence (Q93PF7 1-239): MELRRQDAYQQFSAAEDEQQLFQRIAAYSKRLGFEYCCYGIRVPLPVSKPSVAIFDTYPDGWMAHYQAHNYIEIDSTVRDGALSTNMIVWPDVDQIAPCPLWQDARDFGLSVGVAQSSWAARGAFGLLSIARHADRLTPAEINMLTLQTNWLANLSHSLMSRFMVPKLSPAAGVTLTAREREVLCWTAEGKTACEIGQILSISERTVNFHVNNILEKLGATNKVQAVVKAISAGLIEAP
test_method_notes: CepR agonism in B. multivorans cepI::lacZ reporter (Bm-reporter)
Type: cell-based
measurement_conditions: Bm-reporter, agonism dose-response; read-out: EC50
pEC50: −log10 of the molar value.

Please review the following examples before continuing.
>  <compound>
CCCCCC(O)CC(=O)N[C@H]1CCOC1=O (stereo partly shown) [3’OH-C8-AHL, reference compound]

>  <pEC50>
≤ 6.01

$$$$
>  <compound>
CCCCCC(=O)CC(=O)N[C@H]1CCOC1=O [3’O-C8-AHL, reference compound]

>  <pEC50>
≤ 5.46

$$$$
>  <compound>
O=C(CCc1cccc(Br)c1)N[C@H]1CCOC1=O

>  <pEC50>
≤ 5.47

$$$$

Now for another entry.
Query string: Item under review: O=C(CCc1cccc(C(F)(F)F)c1)N[C@H]1CCOC1=O . Reported pEC50?
Result string: ≤ 5.41

###

tested_on: CepR (Burkholderia multivorans, UniProt Q93PF7)
test_method_notes: CepR antagonism in B. multivorans cepI::lacZ reporter (Bm-reporter), competition against C8-AHL
Format: cell-based
measurement_conditions: Bm-reporter; against 5 nM C8-AHL
Excerpt: We next sought to assess if the CepR modulators identified in the Ec-reporter maintained their activities in a member of the Bcc. For these studies, we generated a B. multivorans cepI::lacZ reporter organism (Bm-reporter) using standard allelic exchange methods (see Methods). […] Similar to the Ec-reporter, CepR binding to the cepI promoter then induces β-galactosidase production, allowing for the quantitation of CepR activity. […]
observed_property: Maximal Inhibition (%)
Output spec: scalar in %, unitless text.

Look over these answered cases.
>  <compound>
O=C(CC1CCCC1)N[C@H]1CCOC1=O

>  <Maximal Inhibition (%)>
83

$$$$
>  <compound>
O=C(Cc1cccc(C(F)(F)F)c1)N[C@H]1CCOC1=O

>  <Maximal Inhibition (%)>
100

$$$$
>  <compound>
CCCCCCCS(=O)(=O)N[C@H]1CCOC1=O

>  <Maximal Inhibition (%)>
82

$$$$

Alright, here's another compound for you.
Query string: Query: Maximal Inhibition (%); subject: CSc1cccc(CC(=O)NC2CCOC2=O)c1 (stereo not shown)
Result string: 97

###

tested_on: CepR (Burkholderia multivorans)
test_method_notes: CepR agonism in B. multivorans cepI::lacZ reporter (Bm-reporter)
Assay type: cell-based
measurement_conditions: Table S4, Bm-reporter; screening conc. 100 μM
Measured Act%, listed per entry.
Form entry: enter the amount, then its unit.

>  <compound>
O=C(CCc1cccc(Br)c1)N[C@H]1CCOC1=O [Compound E31]

>  <tested_on>
CepR (Burkholderia multivorans)

>  <Act%>
78%

$$$$
>  <compound>
CCCCCC(O)CC(=O)N[C@H]1CCOC1=O (stereo partly drawn) [3’OH-C8-AHL, reference compound]

>  <tested_on>
CepR (Burkholderia multivorans)

>  <Act%>
78%

$$$$

Query string: // Act% lookup, key: O=C(CCc1ccc(Br)cc1)N[C@H]1CCOC1=O [Compound B7]
Result string: 82%
